- Test system: Candida albican ATCC 90873
- method.description: In vitro antifungal activity (MIC80), Candida albican ATCC 90873
- Type: cell-based
- test.settings: Candida, ATCC90873; Table 2, ATCC 90873; read-out: Minimal inhibitory concentration (MIC80)
- Procedure: In vitro antifungal activities of the inventive antifungal compounds were evaluated using test strains including Candida albican (ATCC 90873, 204276, 62342, 64124, 64550, 96901, MYA-573, MYA-574, MYA-575, MYA-576, MYA-1003) and Aspergillus fumigatus (ATCC 16424). […] Minimal inhibitory concentration (MIC80) of each compound was determined as the lowest concentration of the test compounds required to reduce growth by 80% relative to a control strain not treated. […]
quantity.name: MIC80 (µg/mL)

[[record]]
molecule = "C[C@@H](N1CCN(c2ncccn2)CC1)[C@](O)(Cn1cncn1)c1ccc(F)cc1F"
test_system = "Candida albican ATCC 90873"
obs_value = 0.125

[[record]]
molecule = "C[C@@H](N1CCN(c2ccc3ccccc3n2)CC1)[C@](O)(Cn1cncn1)c1ccc(F)cc1F"
test_system = "Candida albican ATCC 90873"
obs_value = 0.125

[[record]]
molecule = "C[C@@H](N1CCN(C(=O)c2nc(-c3ccccc3)ns2)CC1)[C@](O)(Cn1cncn1)c1ccc(F)cc1F"
test_system = "Candida albican ATCC 90873"
obs_value = 0.125


P = COc1ccc(C(=O)c2cnc3sc(C(=O)N4CCN(C(C)C(O)(Cn5cncn5)c5ccc(F)cc5F)CC4)cn23)cc1 (stereo not shown)
Q = C[C@@H](N1CCN(c2nc3ccc(NCCN4CCOCC4)cc3s2)CC1)[C@](O)(Cn1cncn1)c1ccc(F)cc1F
R = CC(N1CCN(c2ccc(N(C)CCCN3CCOCC3)nc2)CC1)C(O)(Cn1cncn1)c1ccc(F)cc1F (stereo not shown)
query: # rank_down: sort by MIC80, max first Order the labels as requested and give them as your answer.
result: R, Q, P

* * *

- Tested on: Candida albican ATCC 62342
- method.description: In vitro antifungal activity (MIC80), Candida albican ATCC 62342
- Format: cell-based
- test.settings: Candida, ATCC62342; Table 2, 62342; read-out: Minimal inhibitory concentration (MIC80)
- Procedure: In vitro antifungal activities of the inventive antifungal compounds were evaluated using test strains including Candida albican (ATCC 90873, 204276, 62342, 64124, 64550, 96901, MYA-573, MYA-574, MYA-575, MYA-576, MYA-1003) and Aspergillus fumigatus (ATCC 16424). […] Minimal inhibitory concentration (MIC80) of each compound was determined as the lowest concentration of the test compounds required to reduce growth by 80% relative to a control strain not treated. […]
quantity.name: MIC80 (µg/mL)

In the examples that follow, each entry is paired with its recorded MIC80.
[[record]]
compound = "C[C@@H](N1CCN(c2ccc(OCCN3CCOCC3)nc2)CC1)[C@](O)(Cn1cncn1)c1ccc(F)cc1F [Example 34]"
units_of_measure = "µg/mL"
obs_value = 0.5

[[record]]
compound = "C[C@@H](N1CCN(Cc2cccs2)CC1)[C@](O)(Cn1cncn1)c1ccc(F)cc1F [Example 44]"
units_of_measure = "µg/mL"
obs_value = 4

[[record]]
compound = "CC(C)Oc1cccc(N2CCN([C@H](C)[C@](O)(Cn3cncn3)c3ccc(F)cc3F)CC2)n1 [Example 24]"
units_of_measure = "µg/mL"
obs_value = 8

[[record]]
compound = "C[C@@H](N1CCN(c2nc3ccc(N4CCCCC4)cc3s2)CC1)[C@](O)(Cn1cncn1)c1ccc(F)cc1F [Example 10]"
units_of_measure = "µg/mL"
obs_value = 0.125

[[record]]
compound = "CCC(C)n1ncn(-c2ccc(N3CCN(c4ccc(OCC5COC(Cn6cncn6)(c6ccc(Cl)cc6Cl)O5)cc4)CC3)cc2)c1=O (stereo not drawn) [I, itraconazole, reference compound]"
units_of_measure = "µg/mL"
obs_value = 0.25

[[record]]
compound = "C[C@@H](N1CCN(c2ncccn2)CC1)[C@](O)(Cn1cncn1)c1ccc(F)cc1F [Example 18]"
units_of_measure = "µg/mL"
obs_value = 4

[[record]]
compound = "CC(N1CCN(c2ccc(N(C)CCc3cccs3)nc2)CC1)C(O)(Cn1cncn1)c1ccc(F)cc1F (stereo not drawn) [Example 37]"
units_of_measure = "µg/mL"
obs_value = 1

[[record]]
compound = "C[C@@H](N1CCN(c2ccc(C#N)nc2)CC1)[C@](O)(Cn1cncn1)c1ccc(F)cc1F [Example 17]"
units_of_measure = "µg/mL"
obs_value = 2

[[record]]
compound = "C[C@@H](N1CCN(c2nc3ccc(N(C)CCN4CCOCC4)cc3s2)CC1)[C@](O)(Cn1cncn1)c1ccc(F)cc1F [Example 13]"
units_of_measure = "µg/mL"
obs_value = 0.25

[[record]]
compound = "C[C@@H](N1CCN(c2cccc(N(C)CCCN3CCOCC3)n2)CC1)[C@](O)(Cn1cncn1)c1ccc(F)cc1F [Example 27]"
units_of_measure = "µg/mL"
obs_value = 2


I = OC(Cn1cncn1)(Cn1cncn1)c1ccc(F)cc1F [F, fluconazole, reference compound]
II = C[C@@H](N1CCN(Cc2ccncc2)CC1)[C@](O)(Cn1cncn1)c1ccc(F)cc1F [Example 42]
query: Which value of MIC80 is numerically greater: that of I or that of II ? Answer with the label corresponding to your selection.
result: I

a = C[C@@H](N1CCN(c2nc3ccc(Cl)cc3o2)CC1)[C@](O)(Cn1cncn1)c1ccc(F)cc1F [Example 6]
b = CC(N1CCN(C(=O)c2cn3c(C(=O)c4ccccc4)cnc3s2)CC1)C(O)(Cn1cncn1)c1ccc(F)cc1F (stereo not drawn) [Example 55]
query: // pick larger MIC80 from pair: a vs b The response must carry the label of the picked entry.
result: b
(b: 0.5 µg/mL, a: 0.25 µg/mL)

Attribution: patent US20100144712A1
